System: OVCAR-3
Protocol notes: NCI tumour cell line growth inhibition, 48 h
The source made the active and inactive calls. No stated cut-off is given here; in the data, active = GI50 up to about 1.1 µM and inactive = higher.
Outcomes: active, inactive

>  <Compound>
C[C@H]1S[C@H](c2c(Cl)cccc2Cl)N2Cc3ccccc3N=C12

>  <Classification>
inactive

$$$$
>  <Compound>
O=C(N/N=C1\CCc2ccccc21)N/N=C1\CCc2ccccc21

>  <Classification>
inactive

$$$$
>  <Compound>
Cc1nc2c(sc(=S)n2-c2ccccc2)c2nc3ccccc3n12

>  <Classification>
inactive

$$$$
>  <Compound>
O=C(/C=C\c1ccccc1)Oc1ccc(/C=C2\CCC/C(=C\c3ccc(OC(=O)/C=C\c4ccccc4)cc3)C2=O)cc1

>  <Classification>
inactive

$$$$
>  <Compound>
CC(C)CCCCCCCCCCCCC(=O)NCC(=O)NC1C(O)C(O)C(Nc2[nH]cnc3ncnc2-3)OC1C(O)CO (configuration not stated)

>  <Classification>
active

$$$$
>  <Compound>
S=C(N/N=C\C=N/NC(=S)N1CCCCCC1)N1CCCCCC1

>  <Classification>
inactive

$$$$
>  <Compound>
COc1ccc(-c2oc(/C=N/NC(N)=S)c([N+](=O)[O-])c2-c2ccc(OC)c(OC)c2)cc1OC

>  <Classification>
inactive

$$$$
